test system: Liver ApoB mRNA; assay: Liver ApoB mRNA knockdown by 1:57 SNALP containing cationic lipid and ApoB siRNA in mice (branched DNA QuantiGene assay); assay type: in vivo; conditions: 1:57 SNALP containing the cationic lipid with ApoB siRNA; IV 0.033 mg/kg; Balb/c mice; liver ApoB:GAPD mRNA; 48 h; n = 3
Task for the reader: assign each of the following compounds its reported ApoB knockdown relative to PBS control (%).

Some compounds with known ApoB knockdown relative to PBS control (%) results, for comparison:
CCCCC/C=C\C/C=C\C/C=C\CCCCCC(CCCCC/C=C\C/C=C\C/C=C\CCCCC)OC(=O)CCCN(C)C	−71%
CCCCCC1CC1CC1CC1CC1CC1CCCCCC(CCCCCC1CC1CC1CC1CC1CC1CCCCC)OC(=O)CCCN(C)C (centres unmarked)	−54%
CCCCC/C=C\C/C=C\CCCCCCCCC(CCCCCCCC/C=C\C/C=C\CCCCC)OCCCN(C)C	−69%
CCCCC/C=C\C/C=C\CCCCCCCC(O)C(CCCCCCC/C=C\C/C=C\CCCCC)OC(=O)CCN(C)C (centres unmarked)	−30%
CC/C=C\CCCN(CCCN(C)C)C(=O)OC(CCCCCCC/C=C\C/C=C\CCCCC)CCCCCCCCC/C=C\C/C=C\CCCCC (centres unmarked)	−68%
CCCCC/C=C\C/C=C\CCCCCCCCC1(CCCCCCCC/C=C\C/C=C\CCCCC)OCC(CCN(C)C)O1 (centres unmarked) [Compound C2K, reference compound]	−51%

Return reported ApoB knockdown relative to PBS control (%) values for all items listed beneath this line.
1. CC/C=C\C/C=C\C/C=C\CCCCCCCCC(CCCCCCCC/C=C\C/C=C\C/C=C\CC)OCCCCN(C)C
2. CC/C=C\C/C=C\C/C=C\CCCCCCCCC(CCCCCCCC/C=C\C/C=C\C/C=C\CC)OCCCN(C)C

−78%
−41%

----------
tested on: Liver ApoB mRNA; assay: Liver ApoB mRNA knockdown by 1:57 SNALP containing cationic lipid and ApoB siRNA in mice (branched DNA QuantiGene assay); assay type: in vivo; details: 1:57 SNALP containing the cationic lipid with ApoB siRNA; IV 0.05 mg/kg; Balb/c mice; liver ApoB:GAPD mRNA; 48 h; n = 3
OBSERVABLE: ApoB knockdown relative to PBS control (%)
One number for each entry, in %.

Recorded ApoB knockdown relative to PBS control (%), per entry:
CCCCC/C=C\C/C=C\CCCCCCCCC(CCCCCCCC/C=C\C/C=C\CCCCC)OC(=O)N(C)CCN(C)C [Compound 11, MC2MC]	−54
CCCCC/C=C\C/C=C\CCCCCCCCC(CCCCCCCC/C=C/C/C=C/CCCCC)OC(=O)CCCN(C)C (centres unmarked) [Compound 25]	−66
CCCCC/C=C\C/C=C\CCCCCCCCC1(CCCCCCCC/C=C\C/C=C\CCCCC)OCC(CCN(C)C)O1 (centres unmarked) [Compound C2K, reference compound]	−66

Respectfully, I request ApoB knockdown relative to PBS control (%) for each entry included below.
1. CCCCC/C=C/C/C=C/CCCCCCCCC(CCCCCCCC/C=C/C/C=C/CCCCC)OC(=O)CCCN(C)C [Compound 40]
2. CC(C)CCCC(C)CCCC(C)CCCC(C)CCC(CCC(C)CCCC(C)CCCC(C)CCCC(C)C)OC(=O)CCCCN(C)C (centres unmarked) [Compound 18, Phytanyl-MC4]
3. CCCCC/C=C\C/C=C\CCCCCCCCC(CCCCCCCC/C=C\C/C=C\CCCCC)SC(=O)CCCN(C)C [Compound 20]
4. CCCCC/C=C\C/C=C\CCCCCCCCC(CCCCCCCC/C=C\C/C=C\CCCCC)OC(=O)N(C)CCCN(CC)CC [Compound 31]
5. CCCCC/C=C\C/C=C\CCCCCCCCC(CCCCCCCC/C=C\C/C=C\CCCCC)OC(=O)N(C)CCCN(C)CC [Compound 30]

1: −58; 2: −46; 3: −50; 4: −62; 5: −65
